Entry source: ChEMBL document CHEMBL1126832

molecular target: Melatonin receptor (Oryctolagus cuniculus); assay: Inhibition of […] calcium dependent dopamine release from the rabbit retina.
endpoint: IC50 (nM)

The cases that follow already have their IC50 on record.
# compound, IC50 / nM
measured = [
    ("COc1cccc2c1CC(NC(=O)C(C)C)CC2 (stereo not drawn)", 7.9),
    ("COc1cccc2c1CC(NC(=O)CCl)CC2 (stereo not drawn)", 0.063),
    ("COc1ccc2c(c1)CC(NC(C)=O)CC2 (stereo not drawn)", 1.6),
    ("CCCC(=O)NC1CCc2cccc(OC)c2C1 (stereo not drawn)", 1.2),
    ("O=C(CCl)NC1CCc2ccccc2C1 (stereo not drawn)", 1.3),
]

I. CC(=O)NC1CCc2ccccc2C1 (stereo not drawn)
II. CCC(=O)NC1CCc2ccccc2C1 (stereo not drawn)
input: // compare measured IC50, left I , right II , return larger Mark your answer with the label of the selected entry.
output: I
(I: 52 nM, II: 8.1 nM)

A. COc1cccc2c1CCC(NC(C)=O)C2 (stereo not drawn)
B. COc1cc2c(CCNC(C)=O)c(C)[nH]c2c(Cl)c1Cl
C. CCCC(=O)NC1CCc2ccccc2C1 (stereo not drawn)
D. COc1ccccc1CCNC(C)=O
E. COc1cccc2c1CC(NC(=O)c1ccccc1)CC2 (stereo not drawn)
input: I would appreciate it if you could sort these 5 compounds by IC50, starting from the smallest number. Give the labels in the order specified.
output: B, C, D, A, E

----------
target: Melatonin receptor (Gallus gallus) (UniProt P49288+P51050+P49285); experiment: Relative binding affinity to chicken retinal membranes compared to 2-[125I]iodomelatonin.; details: Retina; Membrane
endpoint: Relative affinity

# compound, testValue
records = [
    ("CCCC(=O)NCCc1c[nH]c2ccc(OC)cc12", 1.28),
    ("CCCC(=O)NCCc1ccccc1OC", 1310),
    ("COc1cccc2c1CC(NC(=O)C1CC1)CC2 (stereo not given)", 247),
    ("CCC(=O)NCCc1c[nH]c2ccc(OC)cc12", 0.47),
    ("COc1ccc2c(c1)CC(NC(C)=O)CC2 (stereo not given)", 212),
]

1. CC(=O)NC1CCc2ccccc2C1 (stereo not given)
2. COc1cccc2c1CC(NC(=O)C(C)C)CC2 (stereo not given)
3. CCCC(=O)NC1CCc2cccc(OC)c2C1 (stereo not given)
input: I would appreciate it if you could sort these 3 compounds by Relative affinity, starting from the smallest number. Give the labels in the order specified.
output: 3, 2, 1
(3: 6.3, 2: 547, 1: 1170)

a. COc1cc2c(CCNC(C)=O)c(C)[nH]c2c(Cl)c1Cl
b. CCCC(=O)NC1CCc2ccccc2C1 (stereo not given)
input: // compare measured Relative affinity, left a , right b , return larger Mark your answer with the label of the selected entry.
output: b
(b: 78, a: 0.4)

----------
molecular target: Melatonin receptor (Gallus gallus, UniProt P49288+P51050+P49285); test: Binding affinity to compete for 2-[125I]iodomelatonin binding to chicken retinal membranes; parameters: species or system Retina, Membrane
endpoint: Ki (nM)

The cases that follow already have their Ki on record.
# molecule, Ki [nM]
data = [
    ("COc1cccc(CCNC(C)=O)c1", 581),
    ("CC(=O)NC1CCc2ccccc2C1 (configuration not stated)", 665),
    ("COc1ccccc1CCNC(C)=O", 420),
    ("COc1cccc2c1CC(NC(=O)c1ccccc1)CC2 (configuration not stated)", 23100),
]

P. O=C(CCl)NC1CCc2ccccc2C1 (configuration not stated)
Q. CCCC(=O)NC1CCc2cccc(OC)c2C1 (configuration not stated)
input: Of P versus Q , which is the one with smaller reported Ki? Mark your answer with the label of the selected entry.
output: Q

----------
molecular target: Melatonin receptor (Gallus gallus, UniProt P49288+P51050+P49285); assay: Binding affinity to compete for 2-[125I]iodomelatonin binding to chicken retinal membranes; design: species or system Retina, Membrane
endpoint: Ki (nM)

The cases that follow already have their Ki on record.
# compound, Ki [nM]
rows = [
    ("COc1cccc2c1CC(NC(=O)C1CC1)CC2 (configuration not stated)", 141),
    ("CCC(=O)NCCc1ccccc1OC", 789),
    ("COc1ccc2c(c1)CC(NC(C)=O)CC2 (configuration not stated)", 121),
    ("CCCC(=O)NCCc1c[nH]c2ccc(OC)cc12", 0.73),
]

1. CCC(=O)NC1CCc2ccccc2C1 (configuration not stated)
2. COc1cccc2c1CC(NC(=O)CCl)CC2 (configuration not stated)
input: Of 1 versus 2 , which is the one with smaller reported Ki? Mark your answer with the label of the selected entry.
output: 2

----------
biological target: Melatonin receptor (Gallus gallus, UniProt P49288+P51050+P49285); test: Binding affinity to compete for 2-[125I]iodomelatonin binding to chicken retinal membranes; design: species or system Retina, Membrane
endpoint: Ki (nM)

# compound, testTarget, endpoint, testValue
records = [
    ("COc1cc2c(CCNC(C)=O)c(C)[nH]c2c(Cl)c1Cl", "Melatonin receptor (Gallus gallus, UniProt P49288+P51050+P49285)", "Ki", 0.23),
]

I. CCC(=O)NCCc1c[nH]c2ccc(OC)cc12
II. COc1cccc2c1CC(NC(=O)C(C)C)CC2 (stereo unspecified)
III. CCCC(=O)NC1CCc2ccccc2C1 (stereo unspecified)
input: Arrange these compounds by their Ki, starting with the largest number. Give the labels in the order specified.
output: II, III, I
(II: 312 nM, III: 44.4 nM, I: 0.27 nM)
